Attribution: the RNAGym collection of RNA variant scans (doi:10.1002/anie.201605470)

Listing of entries alongside the reported self-cleavage.
B1: Osa-1-4 twister ribozyme (parent)
chain: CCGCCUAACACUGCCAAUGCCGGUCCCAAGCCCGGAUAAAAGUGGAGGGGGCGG

# Variants of: B1
# procedureDetails: self-cleavage, relative activity (ratio to wild type); higher = more cleavage; co-transcriptional
measureName: self-cleavage

INSERT INTO results (sequencechange, quantitativeresult) VALUES
  ('A10U C25G', 0.02),
  ('C11A U24A', 0.05),
  ('C9G G47U', 0.07),
  ('C14A U18G', 0.11),
  ('A10G G48C', 0.06),
  ('C21G C27U', 0.02),
  ('G30U G35U', 0.04),
  ('C15A C31A', 0.03),
  ('G13C U24G', 0.01),
  ('A7C G49U', 0.02),
  ('C25U U43G', 0.17),
  ('C52G G22A', 0.75),
  ('C27U C31G', 0.06),
  ('C31A G51A', 0.04),
  ('A39G G49U', 0.1),
  ('C11U C9A', 0.26),
  ('G13C G54U', 0.04),
  ('A38U G42C', 0.17),
  ('A46G U18A', 0.06),
  ('A46U U18A', 0.05),
  ('G30A G48U', 0.01),
  ('A16G C20U', 0.99),
  ('G35A U12A', 0.61),
  ('A41U C26A', 0.06),
  ('C9G U43A', 0.87),
  ('A40C G50C', 0.07),
  ('C27G G49U', 0.04),
  ('A17G G54A', 0.9),
  ('A41C C31G', 0.09),
  ('G49U G50U', 0.21),
  ('G45C G53C', 0.05),
  ('C32G G53C', 0.06),
  ('A8G U43A', 0.23),
  ('A16U A39C', 0.93),
  ('A10U G51A', 0.04),
  ('A29C C26A', 0.02),
  ('C14G C25U', 0.12),
  ('A29C G50C', 0.03),
  ('A16C U24C', 0.17),
  ('C21A C32A', 0.08),
  ('A8U U18A', 0.39),
  ('A10U A39U', 0.12),
  ('C15G G48C', 0.05),
  ('C33U U37G', 0.9),
  ('G13C G49A', 0.01),
  ('A40G A41C', 0.41);
